TEST: physchem
MEASUREMENT PARAMETERS: pH 9, aqueous buffer, kinetic from dmso stock, Solubility Range (maximum solubility)
METRIC: solubility at 24 h

CCNC(=O)Nc1nc2cc(-c3cnc(N4CCC(C)(C(=O)O)CC4)nc3)c(OC)c(Br)c2s1    12.5 to 400 µg/mL
CCNC(=O)Nc1nc2cc(-c3cnc(N4CCC(C)(C(=O)O)CC4)nc3)cc(C#Cc3ncccn3)c2s1    400 to 800 µg/mL
CCNC(=O)Nc1nc2cc(-c3cnc(N(C)C4CCC(C)(C(=O)O)CC4)nc3)cc(-c3ccccn3)c2s1 (stereo not shown)    > 800 µg/mL

[in] Value lookup for solubility at 24 h; key = CCNC(=O)Nc1nc2cc(-c3cnc(N4CCC(CC)(C(=O)O)CC4)nc3)cc(C(=O)CC)c2s1
[out] 400 to 800 µg/mL

[in] Field entry: CCNC(=O)Nc1nc2cc(-c3cnc(N4CCC(C)(C(=O)O)CC4)nc3)cc(-c3ccc(CN4CCOCC4)cn3)c2s1
[out] > 800 µg/mL

[in] Field entry: CCNC(=O)Nc1nc2cc(-c3cnc(N4CCC(C)(C(=O)O)CC4)nc3)cc(-c3cnc(OCC)s3)c2s1
[out] > 800 µg/mL

[in] Field entry: CCNC(=O)Nc1nc2cc(-c3cnc(N4CCC(C)(C(=O)O)CC4)nc3)cc(C#Cc3cccc(OC)n3)c2s1
[out] > 800 µg/mL

[in] Field entry: CCNC(=O)Nc1nc2cc(-c3cnc(N4CCC(C)(C(=O)O)CC4)nc3)cc(-c3ncc(C#N)cc3F)c2s1
[out] > 800 µg/mL

[in] Field entry: CCNC(=O)Nc1nc2cc(-c3cnc(N4CCC(C)(C(=O)O)CC4)nc3)cc(-c3ccnc(C)n3)c2s1
[out] > 800 µg/mL

[in] Field entry: CCCC1(C(=O)O)CCN(c2ncc(-c3cc(-c4cnccn4)c4sc(NC(=O)NCC)nc4c3)cn2)CC1
[out] > 800 µg/mL

[in] Field entry: CCNC(=O)Nc1nc2cc(-c3cnc(N4CCC(C)(C(=O)O)CC4)nc3)cc(-c3nccnc3C)c2s1
[out] > 800 µg/mL

[in] Field entry: CCNC(=O)Nc1nc2cc(-c3cnc(N4CCC(C)(C(=O)O)CC4)nc3)cc(-c3ccc(CN4CCC(F)(F)CC4)cn3)c2s1
[out] > 800 µg/mL

[in] Field entry: CCNC(=O)Nc1nc2cc(-c3cnc(N4CCC(C)(C(=O)O)CC4)nc3)cc(-c3cnc(CC)s3)c2s1
[out] 400 to 800 µg/mL

----------
TEST: Turbidimetric assay: determination of solubility
MEASUREMENT PARAMETERS: pH 9, aqueous buffer, kinetic from dmso stock, Max Solubility, maximum of pH 4, 7.4 and 9; shown at pH 9
METRIC: solubility at 24 h (µg/mL)
Give the number; µg/mL is assumed, so skip it.

[in] Value lookup for solubility at 24 h; key = CCNC(=O)Nc1nc2cc(-c3cnc(N4CCC(CC)(C(=O)O)CC4)nc3)cc(-c3ccccn3)c2[nH]1 [Compound 229]
[out] 200

----------
TEST: physchem
MEASUREMENT PARAMETERS: pH 9, aqueous buffer, kinetic from dmso stock, Max Solubility
METRIC: solubility at 24 h

In the examples that follow, each entry is paired with its recorded solubility at 24 h.
CCNC(=O)Nc1nc2cc(-c3cnc(N4CCC(C)(C(=O)O)CC4)nc3)cc(-c3ccc(F)c(C)n3)c2s1    ≥ 800 µg/mL
CCCC1(C(=O)O)CCN(c2ncc(-c3cc(-c4nccc(OC)n4)c4sc(NC(=O)NCC)nc4c3)cn2)CC1    25 µg/mL
CCNC(=O)Nc1nc2cc(-c3cnc(N4CCC(C)(C(=O)O)CC4)nc3)cc(-n3ccnc3)c2s1    ≥ 800 µg/mL
CCNC(=O)Nc1nc2cc(-c3cnc(N4CCC(C)(C(=O)O)CC4)nc3)cc(-c3cnc(N(C)C)s3)c2s1    100 µg/mL
CCNC(=O)Nc1nc2cc(-c3cnc(N4CCC(C)(C(=O)O)CC4)c(F)c3)cc(-c3ccccn3)c2s1    400 µg/mL
CCNC(=O)Nc1nc2cc(-c3cnc(N4CCC(C)(C(=O)O)CC4)nc3)cc(-c3ncc(C#N)cc3F)c2s1    ≥ 800 µg/mL
CCNC(=O)Nc1nc2cc(-c3cnc(N4CCC(C)(C(=O)O)CC4)nc3)cc(-c3ccnc(C)n3)c2s1    ≥ 800 µg/mL
CCCC1(C(=O)O)CCN(c2ncc(-c3cc(-c4cnccn4)c4sc(NC(=O)NCC)nc4c3)cn2)CC1    ≥ 800 µg/mL
CCNC(=O)Nc1nc2cc(-c3cnc(N4CCC(C)(C(=O)O)CC4)nc3)cc(C#Cc3ccncc3)c2s1    ≥ 800 µg/mL
CCNC(=O)Nc1nc2cc(-c3cnc(N(C)C4CCC(C)(C(=O)O)CC4)nc3)cc(-c3ccccn3)c2s1 (centres unmarked)    ≥ 800 µg/mL

[in] Value lookup for solubility at 24 h; key = CCNC(=O)Nc1nc2cc(-c3cnc(N4CCC(C)(C(=O)O)CC4)nc3)cc(-c3ccc(CN4CCC(F)(F)CC4)cn3)c2s1
[out] ≥ 800 µg/mL

[in] Field entry: CCNC(=O)Nc1nc2cc(-c3cnc(N4CCC(C)(C(=O)O)CC4)nc3)cc(-c3ccc(CN4CCOCC4)cn3)c2s1
[out] ≥ 800 µg/mL

[in] Field entry: CCNC(=O)Nc1nc2cc(-c3cnc(N4CCC(C)(C(=O)O)CC4)nc3)cc(-c3cnc(CC)cn3)c2s1
[out] ≥ 800 µg/mL

[in] Field entry: CCNC(=O)Nc1nc2cc(-c3cnc(N4CCC(C)(C(=O)O)CC4)nc3)cc(-c3cc(=O)n(C(C)C)cn3)c2s1
[out] 400 µg/mL

----------
TEST: physchem
MEASUREMENT PARAMETERS: pH 7.4, aqueous buffer, kinetic from dmso stock, Solubility Range
Measured solubility at 24 h by item

In the examples that follow, each entry is paired with its recorded solubility at 24 h.
CCNC(=O)Nc1nc2cc(-c3cnc(N4CCC(C)(C(=O)O)CC4)nc3)cc(C(=O)N3CCOCC3)c2s1    400 to 800 µg/mL
CCNC(=O)Nc1nc2cc(-c3cnc(N4CCC(C)(C(=O)O)CC4)nc3)cc(-c3csc(OC)n3)c2s1    > 800 µg/mL
CCNC(=O)Nc1nc2cc(-c3cnc(C(=O)N4CCC(C)(C(=O)O)CC4)nc3)cc(-c3ccccn3)c2s1    > 800 µg/mL
CCNC(=O)Nc1nc2cc(-c3cnc(N4CCC(C)(C(=O)O)CC4)nc3)cc(-c3ccnc(OC)n3)c2s1    12.5 to 400 µg/mL

[in] Value lookup for solubility at 24 h; key = CCCC1(C(=O)O)CCN(c2ncc(-c3cc(-c4cnccn4)c4sc(NC(=O)NCC)nc4c3)cn2)CC1
[out] 400 to 800 µg/mL

[in] Field entry: CCNC(=O)Nc1nc2cc(-c3cnc(N4CCC(C)(C(=O)O)CC4)cn3)cc(-c3ccccn3)c2s1
[out] > 800 µg/mL

[in] Field entry: CCNC(=O)Nc1nc2cc(-c3cnc(N4CCC(C)(C(=O)O)CC4)nc3)cc(-c3ncc(C)cc3F)c2s1
[out] > 800 µg/mL

[in] Field entry: CCCC1(C(=O)O)CCN(c2ncc(-c3cc(-c4ccccn4)c4sc(NC(=O)NCC)nc4c3)cn2)CC1
[out] 400 to 800 µg/mL

[in] Field entry: CCNC(=O)Nc1nc2cc(-c3cnc(N4CCC(CC)(C(=O)O)CC4)nc3)cc(-c3cc(OC)ncn3)c2s1
[out] > 800 µg/mL

[in] Field entry: CCNC(=O)Nc1nc2cc(-c3cnc(N4CCC(C)(C(=O)O)CC4)nc3)cc(-c3cc(OCC)ccn3)c2s1
[out] > 800 µg/mL

[in] Field entry: CCNC(=O)Nc1nc2cc(-c3cnc(N4CCC(C)(C(=O)O)CC4)nc3)cc(-c3nccnc3OC)c2s1
[out] > 800 µg/mL

----------
TEST: physchem
MEASUREMENT PARAMETERS: pH 7.4, aqueous buffer, kinetic from dmso stock, Solubility (pH 7.4)
METRIC: solubility at 24 h (µg/mL)

CCNC(=O)Nc1nc2cc(-c3cnc(N4CCC(C)(C(=O)O)CC4)nc3)cc(C#Cc3ccncn3)c2s1    400

I. CCNC(=O)Nc1nc2cc(-c3cnc(N4CCC(C)(C(=O)O)CC4)nc3)cc(-n3ccnc3)c2s1
II. CCNC(=O)Nc1nc2cc(-c3cnc(N4CCC(C)(C(=O)O)CC4)nc3)cc(-c3ccc(CN4CCOCC4)cn3)c2s1
[in] Please tell me which of the two, I or II , has the higher reported solubility at 24 h value. Kindly give the label for the entry you pick.
[out] II
(II: 400 µg/mL, I: 200 µg/mL)
